Every entry's value here was drawn from ChEMBL document CHEMBL1153509.

# assay_remarks: Inhibition of 12-O-tetradecanoylphorbol-13-acetate-induced EBV-early antigen activation in human Raji cells assessed per TPA after 48 hrs by conventional indirect immunofluorescence technique
# Format: cell-based, human gammaherpesvirus 4
test_readout: IC50 (mol ratio/TPA)
Form entry: value (mol ratio/TPA) — number only.

// IC50 lookup, key: CCCCCC(=O)OC[C@H](CO)O[C@@H]1O[C@H](COC(=O)CCCCC)[C@@H](O)[C@H](O)[C@H]1O
37.3

Then CCCCCC(=O)OCC(COC(=O)CCCCC)O[C@@H]1O[C@H](CO)[C@@H](O)[C@H](O)[C@H]1O ?
327

Then CCCCCCCCCCCC(=O)OCC(COC(=O)CCCCCCCCCCC)O[C@@H]1O[C@H](CS(=O)(=O)[O-])[C@@H](O)[C@H](O)[C@H]1O.[Na+] ?
581

Then CCCCCC(=O)OCC(COC(=O)CCCCC)O[C@@H]1O[C@H](CS(=O)(=O)[O-])[C@@H](O)[C@H](O)[C@H]1O.[Na+] ?
539
